Where these numbers come from: ChEMBL document CHEMBL3988442

# system under test: Shiga toxin 2 (Escherichia coli O157:H7) (UniProt P09385+P09386)
# assay remarks: E. coli 0.157:H7 Shiga Toxin SOP - stx2 screening assay
# Type: functional
# Design: scale not given: direction of the effect not stated beside the values
# experimental context: 30 µM
measurement kind: Percent Effect (%)
Please respond with the number in % and leave the unit unwritten.

Worked examples, 5 compounds total:
c1cnc(NCc2noc3c2CN(C2CCOCC2)CC3)nc1: -7.78
Cn1nccc1C1CCN(CC(O)c2cccc(F)c2)CC1 (centres undefined): -15.8
CN(C)CCN1CCC2(CC1)CN(c1cccnc1)C(=O)CO2: -5.11
COc1ccc(C(O)CNc2c(C#N)c(=O)n(C)c(=O)n2C)cc1 (centres undefined): -4.88
Cc1[nH]ncc1CCCNC(=O)Nc1ccc(C#N)cc1: -61.3

The reported value for `Cc1nc[nH]c1CN1C[C@@H]2CC[C@H](C1)N(C(=O)CCNS(C)(=O)=O)C2` in terms of Percent Effect is -0.862

The reported value for `Cc1ccc2cc(C3(O)CCN(C(=O)CN4CCCC4)CC3)ccc2n1` in terms of Percent Effect is -47.1

The reported value for `C[C@@H]1C(=O)NC[C@H]2CN(CCc3ccccc3)C[C@H]21` in terms of Percent Effect is -4.99

The reported value for Cc1cc(C)n(CC(=O)NC(Cc2ccsc2)c2ccccn2)c(=O)n1 (centres undefined) in terms of Percent Effect is -15.3

----------
# system under test: Ubiquitin-activating enzyme e1, putative (Leishmania donovani (strain BPK282A1))
# Sequence (whole entry): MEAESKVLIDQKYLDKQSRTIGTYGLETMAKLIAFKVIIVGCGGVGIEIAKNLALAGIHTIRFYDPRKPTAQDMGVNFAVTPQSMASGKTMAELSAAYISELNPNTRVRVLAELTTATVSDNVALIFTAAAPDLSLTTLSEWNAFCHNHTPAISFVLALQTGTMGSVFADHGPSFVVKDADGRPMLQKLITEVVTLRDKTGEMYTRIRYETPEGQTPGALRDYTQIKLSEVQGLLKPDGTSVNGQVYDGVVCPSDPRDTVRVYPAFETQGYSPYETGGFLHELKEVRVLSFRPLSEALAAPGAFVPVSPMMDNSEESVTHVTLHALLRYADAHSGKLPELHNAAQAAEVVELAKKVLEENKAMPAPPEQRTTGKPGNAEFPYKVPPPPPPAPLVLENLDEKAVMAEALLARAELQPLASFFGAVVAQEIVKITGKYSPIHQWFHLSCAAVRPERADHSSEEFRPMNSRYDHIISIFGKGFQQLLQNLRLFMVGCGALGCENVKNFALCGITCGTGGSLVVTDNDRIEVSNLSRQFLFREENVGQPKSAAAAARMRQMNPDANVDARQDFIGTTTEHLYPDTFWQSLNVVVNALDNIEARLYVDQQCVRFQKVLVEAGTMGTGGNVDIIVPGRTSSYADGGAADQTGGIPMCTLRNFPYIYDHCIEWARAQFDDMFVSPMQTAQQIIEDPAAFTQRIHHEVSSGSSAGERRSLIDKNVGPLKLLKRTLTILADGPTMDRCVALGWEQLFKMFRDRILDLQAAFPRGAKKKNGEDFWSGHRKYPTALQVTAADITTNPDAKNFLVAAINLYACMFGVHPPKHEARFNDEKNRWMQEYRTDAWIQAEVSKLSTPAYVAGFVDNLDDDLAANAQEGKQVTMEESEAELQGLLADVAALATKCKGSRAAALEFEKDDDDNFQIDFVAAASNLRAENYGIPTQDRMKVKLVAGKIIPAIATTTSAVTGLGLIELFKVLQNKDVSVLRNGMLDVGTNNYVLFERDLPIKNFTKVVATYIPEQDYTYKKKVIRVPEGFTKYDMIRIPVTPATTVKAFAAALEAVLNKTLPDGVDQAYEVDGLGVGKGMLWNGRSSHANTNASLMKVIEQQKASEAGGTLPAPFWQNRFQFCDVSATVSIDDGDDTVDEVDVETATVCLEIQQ
# assay remarks: Leishmania donovani Ubiquitin Activating Enzyme (LdE1)
# Type: functional
# Design: scale not given: direction of the effect not stated beside the values
# experimental context: 30 µM
Entries with a potency or affinity are not part of this list.
measurement kind: Percent Effect (%)
Please respond with the number in % and leave the unit unwritten.

Worked examples, 4 compounds total:
COc1cc(CNC(C)Cn2cccn2)cc(OC)c1OC (stereo not given): 18.2
CC(Cn1cccn1)NCc1csc(-c2cccs2)n1 (stereo not given): 5.41
Cc1noc(C)c1CN1CC[C@H]2C[C@@H](c3ccncn3)O[C@@H]2C1: 8.11
CCC(O)CN1CCN(C(=O)Cc2cc(Cl)ccc2OC)CC1 (stereo not given): 13

// moving on: another record for Percent Effect
Recorded Percent Effect for O=C(NCC(F)(F)F)C1=NOC2(CCCNC2)C1 (stereo not given) on Ubiquitin-activating enzyme e1, putative (Leishmania donovani (strain BPK282A1)) was 3.9
